B1: library; a variant is named by its letters at N, in order (parent)
chain: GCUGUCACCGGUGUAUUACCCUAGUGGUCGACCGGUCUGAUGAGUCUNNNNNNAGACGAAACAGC

# Variants of: B1
# test: normalized RNA/DNA level without ligand (relative to sTRSVctl = 100) (log10 (% of sTRSVctl)); ligand: hypoxanthine (xanthine aptamer); higher = less ribozyme self-cleavage, higher mRNA level
# assay_setup: HEK293T, reporter: mCherry (pCS4076), ligand present: no
# reported normalized RNA/DNA level without ligand (log10); entries follow
experimental_endpoint: normalized RNA/DNA level without ligand (log10)

>>> reported_result("GCUGUCACCGGUGUAUUACCCUAGUGGUCGACCGGUCUGAUGAGUCUUGAUCGAGACGAAACAGC [UGAUCG]")
1.81
>>> reported_result("GCUGUCACCGGUGUAUUACCCUAGUGGUCGACCGGUCUGAUGAGUCUGAUAUAAGACGAAACAGC [GAUAUA]")
1.8
>>> reported_result("GCUGUCACCGGUGUAUUACCCUAGUGGUCGACCGGUCUGAUGAGUCUACCCCAAGACGAAACAGC [ACCCCA]")
1.86
>>> reported_result("GCUGUCACCGGUGUAUUACCCUAGUGGUCGACCGGUCUGAUGAGUCUGGGAGGAGACGAAACAGC [GGGAGG]")
1.3
>>> reported_result("GCUGUCACCGGUGUAUUACCCUAGUGGUCGACCGGUCUGAUGAGUCUCGAACUAGACGAAACAGC [CGAACU]")
1.79
>>> reported_result("GCUGUCACCGGUGUAUUACCCUAGUGGUCGACCGGUCUGAUGAGUCUAAUCAGAGACGAAACAGC [AAUCAG]")
1.56

Just for reference, the supplement of paper PMC6757056 is where these values come from.
